- Test system: methicilline resistant Staphylococcus aureus (MRSA) (a clinical isolate from the University of Antwerp)
- METHOD: Microtitre plate assay, IC90 determination
- Format: cell-based
- MEASUREMENT_CONTEXT: 90% inhibitory concentration for bacterial growth, 37° C., resazurin fluorescence, read-out: IC90 (μg/ml) STA RMETHIC
For each record, write down the corresponding IC90.
One number for each entry, in µg/mL.

- MOLECULE: "CN(C)CCC(O)(c1ccccc1)c1cc(-c2cccnc2)cc2cc(-c3ccccc3)c(-c3cccnc3)nc12 (stereo not shown) [Compound 65]"
  IC90 (µg/mL): 13.5

Look up IC90 for the entries below, preserving their order.
1. CN(C)CCC(O)(c1cc(F)cc(F)c1)c1cc(Br)cc2cc(-c3ccccc3)c(-n3ccnc3)nc12 (stereo not shown) [Compound 22]
2. CN(C)CCC(O)(c1ccccc1)c1cc(Br)cc2cc(Cc3ccccc3)c(OCCN3CCCCC3)nc12 (stereo not shown) [Compound 48]

14.2
60.3

Entry CN(C)CCOc1nc2c(C(O)(CCN(C)C)c3ccccc3)cc(Br)cc2cc1Cc1ccccc1 (stereo not shown) [Compound 49] — recorded IC90 = 56.3

* * *

- System: Staphylococcus aureus (ATCC29213)
- METHOD: Microtitre plate assay, IC90 determination
- Assay type: cell-based
- MEASUREMENT_CONTEXT: 90% inhibitory concentration for bacterial growth, 37° C., resazurin fluorescence, read-out: IC90 (μg/ml) STA 29213
I'd be grateful if you could share measured IC90 for these entries.
Numbers only, in µg/mL.

- COMPOUND: "COc1nc2cccc(C(O)(CCN(C)C)c3ccccc3)c2cc1-c1ccccc1 (stereo not drawn) [Compound 4]"
  MEASURED_ATTRIBUTE: "IC90"
  UOM: "µg/mL"
  MEASURED_VALUE: 10.4
- COMPOUND: "CN(C)CCC(O)(c1cc(F)cc(F)c1)c1cccc2nc(N(C)C)c(-c3ccccc3)cc12 (stereo not drawn) [Compound 45]"
  MEASURED_ATTRIBUTE: "IC90"
  UOM: "µg/mL"
  MEASURED_VALUE: 9.2
- COMPOUND: "CN(C)CCC(O)(c1cc(F)cc(F)c1)c1cc(Br)cc2cc(-c3ccccc3)c(-n3ccnc3)nc12 (stereo not drawn) [Compound 22]"
  MEASURED_ATTRIBUTE: "IC90"
  UOM: "µg/mL"
  MEASURED_VALUE: 14.2

Batch: IC90 for all items listed.
1. CN(C)CCC(O)(c1ccc2nc(-c3cccnc3)cc(-c3ccccc3)c2c1)c1ccco1 (stereo not drawn) [Compound 44]
2. CN(C)CCC(O)(c1cccc2ccccc12)c1cc(Br)cc2cc(-c3ccccc3)c(-n3cncn3)nc12 (stereo not drawn) [Compound 33]
3. COc1nc2cccc(C(O)(CCN(C)C)c3cc4ccccc4o3)c2cc1-c1ccccc1 (stereo not drawn) [Compound 6]
4. COc1nc2cccc(C(O)(CCN(C)C)c3cc(F)cc(F)c3)c2cc1-c1ccccc1 (stereo not drawn) [Compound 1]
5. COc1nc2c(C(O)(CCN(C)C)c3ccccc3)cc(Br)cc2cc1Cc1ccccc1 (stereo not drawn) [Compound 8]
6. CN(C)CCC(O)(c1ccccc1)c1cc(Br)cc2cc(Cc3ccccc3)c(OCCN3CCCCC3)nc12 (stereo not drawn) [Compound 48]

1. 11.3
2. 14.5
3. 9
4. 11.3
5. 10.1
6. 53.7

For each of the compounds below, note its IC90.
1. COc1nc2cccc(C(O)(CCN(C)C)c3ccc4ccccc4c3)c2cc1-c1ccccc1 (stereo not drawn) [Compound 3]
2. COc1cc(-c2ccccc2)c2cc(C(O)(CCN(C)C)c3ccco3)ccc2n1 (stereo not drawn) [Compound 15]

[11.6, 10.1]

Quick request: IC90 for each listed item, please.
1. CN(C)CCC(O)(c1cccs1)c1cc(Br)cc2cc(Cc3ccccc3)c(N3CCN(C)CC3)nc12 (stereo not drawn) [Compound 20]
2. COc1nc2cccc(C(O)(CCN(C)C)c3cccc4ccccc34)c2cc1-c1ccccc1 (stereo not drawn) [Compound 2]
3. CN(C)CCC(O)(Cc1c(-c2ccccc2)c(-c2ccccc2)nc2ccccc12)c1cc(F)cc(F)c1 (stereo not drawn) [Compound 21]
4. COc1nc2c(C(O)(CCN(C)C)c3cccs3)cc(-c3cccnc3)cc2cc1Cc1ccccc1 (stereo not drawn) [Compound 67]
5. CN(C)CCC(O)(c1cccs1)c1cc(Br)cc2cc(Cc3ccccc3)c(N(C)C)nc12 (stereo not drawn) [Compound 46]
6. CN(C)CCC(O)(c1ccccc1)c1cc(-c2cccnc2)cc2cc(-c3ccccc3)c(-c3cccnc3)nc12 (stereo not drawn) [Compound 65]
7. COc1nc2c(C(O)(CCN(C)C)c3cc(F)cc(F)c3)cc(Br)cc2cc1-c1ccccc1 (stereo not drawn) [Compound 9]
8. COc1cc(-c2ccccc2)c2cc(C(O)(CCN(C)C)c3cc(F)cc(F)c3)ccc2n1 (stereo not drawn) [Compound 11]

[11.6, 9.2, 12.8, 51, 10.5, 13.5, 10.5, 11.3]

Please give IC90, item by item, for the list that follows.
1. CN(C)CCC(O)(c1cc(F)cc(F)c1)c1cc(Br)cc2cc(Cc3ccccc3)c(-n3ccnc3)nc12 (stereo not drawn) [Compound 19]
2. COc1cc(-c2ccccc2)c2cc(C(O)(CCN(C)C)c3ccccn3)ccc2n1 (stereo not drawn) [Compound 16]
3. COc1nc2c(C(O)(CCN(C)C)c3ccco3)cc(Br)cc2cc1-c1ccccc1 (stereo not drawn) [Compound 13]
4. COc1cc(-c2ccccc2)c2cc(C(O)(CCN(C)C)c3ccccc3)ccc2n1 (stereo not drawn) [Compound 14]

1. 14.5
2. 10.4
3. 12.1
4. 10.4

Parameters: items (list). Returns: IC90 for each item.
1. CN(C)CCC(O)(c1cccc2ccccc12)c1cc(Br)cc2cc(Cc3ccccc3)c(N3CCN(c4n[nH]c5ccccc45)CC3)nc12 (stereo not drawn) [Compound 26]
2. COc1nc2c(C(O)(CCN(C)C)c3cccs3)cc(Br)cc2cc1Cc1ccccc1 (stereo not drawn) [Compound 10]
3. COc1nc2ccccc2c(CC(O)(CCN(C)C)c2cccc3ccccc23)c1Cc1ccccc1 (stereo not drawn) [Compound 70]
4. CN(C)CCC(O)(c1cc(F)cc(F)c1)c1ccc2nc(-c3cccnc3)cc(-c3ccccc3)c2c1 (stereo not drawn) [Compound 42]
5. CN(C)CCC(O)(c1ccccc1)c1ccc2nc(N(C)C)cc(-c3ccccc3)c2c1 (stereo not drawn) [Compound 47]
6. CN(C)CCC(O)(c1cccc2ccccc12)c1cc(Br)cc2cc(-c3ccccc3)c(=O)[nH]c12 (stereo not drawn) [Compound 69]
7. CN(C)CCOc1nc2c(C(O)(CCN(C)C)c3ccccc3)cc(Br)cc2cc1Cc1ccccc1 (stereo not drawn) [Compound 49]

[16.3, 12.9, 12.3, 39.4, 10.7, 13.3, 44.7]

Please supply IC90 for each of the following items, keeping them in order.
1. COc1nc2ccc(C(O)(CCN(C)C)c3cc(F)cc(F)c3)cc2cc1Cc1ccc(C)cc1 (stereo not drawn) [Compound 7]
2. CN(C)CCC(O)(c1cccc2ccccc12)c1cc(Br)cc2cc(Cc3ccccc3)c(-n3ccnc3)nc12 (stereo not drawn) [Compound 24]
3. COc1nc2ccccc2c(CC(O)(CCN(C)C)c2cccc(F)c2)c1Cc1ccccc1 (stereo not drawn) [Compound 71]

1. 9.5
2. 11.8
3. 11.5
